- EXPERIMENT DESCRIPTION: AUC (0 to last) in CD-1 nude mouse at 100 mg/ml, po
- Type: ADME, organism-based
- Parameters: dose 100 mg/ml, route oral, time 0 - last
- TEST CONDITIONS: in vivo

{"ITEM SMILES": "Cc1cc(-c2cnn3c(NCC4CCOCC4)nc(Oc4ccccc4)nc23)ccc1C(=O)NC1CC1", "UNIT ABBREVIATION": "ng·h/mL", "AUC(0-t)": 25000}

====

- EXPERIMENT DESCRIPTION: AUC (0 to infinity) in Sprague-Dawley rat at 1 mg/ml, iv
- Format: ADME, organism-based
- Set-up: dose 1 mg/ml, time infinity, route intravenous
- TEST CONDITIONS: in vivo
VALUE KIND: AUC(0-inf) (ng·h/mL)

{"ITEM SMILES": "Cc1cc(-c2cnn3c(NCC4CCOCC4)nc(Oc4ccccc4)nc23)ccc1C(=O)NC1CC1", "MEASURED NUMBER": 871}

====

- EXPERIMENT DESCRIPTION: AUC (0 to last) in CD-1 nude mouse at 10 mg/ml, po
- Type: ADME, organism-based
- Set-up: dose 10 mg/ml, route oral, time 0 - last
- TEST CONDITIONS: in vivo

{"ITEM SMILES": "Cc1cc(-c2cnn3c(NCC4CCOCC4)nc(Oc4ccccc4)nc23)ccc1C(=O)NC1CC1", "UNIT ABBREVIATION": "ng·h/mL", "AUC(0-t)": 1530}

====

Assay read-out IC50; system under study: Dual specificity protein kinase TTK (Homo sapiens, UniProt P33981).
Sequence (P33981 whole entry): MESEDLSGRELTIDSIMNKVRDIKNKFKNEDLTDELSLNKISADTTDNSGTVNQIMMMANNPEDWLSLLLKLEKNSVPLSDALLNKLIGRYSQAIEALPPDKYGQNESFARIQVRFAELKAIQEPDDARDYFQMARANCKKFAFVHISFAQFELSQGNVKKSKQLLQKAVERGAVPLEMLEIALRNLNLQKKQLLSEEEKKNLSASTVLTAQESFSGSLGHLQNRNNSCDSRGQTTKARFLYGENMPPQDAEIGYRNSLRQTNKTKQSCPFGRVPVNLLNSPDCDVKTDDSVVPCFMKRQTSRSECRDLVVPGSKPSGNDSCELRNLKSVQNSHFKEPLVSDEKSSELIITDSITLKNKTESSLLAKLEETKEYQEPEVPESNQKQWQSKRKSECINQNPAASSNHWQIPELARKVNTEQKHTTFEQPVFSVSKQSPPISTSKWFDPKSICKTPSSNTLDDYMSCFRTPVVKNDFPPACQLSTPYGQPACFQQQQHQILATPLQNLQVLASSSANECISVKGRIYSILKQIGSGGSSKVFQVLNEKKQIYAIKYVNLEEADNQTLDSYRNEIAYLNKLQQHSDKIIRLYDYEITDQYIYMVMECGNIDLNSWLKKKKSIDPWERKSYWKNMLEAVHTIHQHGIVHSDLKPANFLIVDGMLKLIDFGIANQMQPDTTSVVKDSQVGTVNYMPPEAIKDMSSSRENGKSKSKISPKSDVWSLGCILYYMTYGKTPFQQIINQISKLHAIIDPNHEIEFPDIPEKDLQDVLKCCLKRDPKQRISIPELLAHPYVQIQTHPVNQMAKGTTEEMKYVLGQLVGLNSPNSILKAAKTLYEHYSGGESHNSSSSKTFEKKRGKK

{"ITEM SMILES": "Cc1cc(-c2cnn3c(NCC4CCOCC4)nc(OC4CCCC4)nc23)ccc1C(=O)NC1CC1", "IC50": "2.3 nM"}
{"ITEM SMILES": "O=C(NC1CC1)c1ccc(-c2cnn3c(NCC4CCOCC4)nc(NC4CCCC4)nc23)cc1", "IC50": "10 nM"}
{"ITEM SMILES": "O=C(NC1CC1)c1ccc(-c2cnn3c(NCC4CCOCC4)nc(N4CCOCC4)nc23)cc1Cl", "IC50": "32 nM"}
{"ITEM SMILES": "CC(=O)Nc1cccc(Oc2nc(NCC3CCOCC3)n3ncc(-c4ccc(C(=O)NC5CC5)c(C)c4)c3n2)c1", "IC50": "8.4 nM"}
{"ITEM SMILES": "CC(C)NC(=O)c1ccc(-c2cnn3c(NCC4CCOCC4)nc(OC4CCCC4)nc23)cc1", "IC50": "230 nM"}
{"ITEM SMILES": "Cc1cc(-c2cnn3c(NCC4CCOCC4)nc(Nc4ccccc4)nc23)ccc1C(=O)NC1CC1", "IC50": "11 nM"}

====

- EXPERIMENT DESCRIPTION: AUC (0 to last) in CD-1 nude mouse at 55 mg/ml, po
- Assay type: ADME, organism-based
- Set-up: dose 55 mg/ml, route oral, time 0 - last
- TEST CONDITIONS: in vivo

{"ITEM SMILES": "Cc1cc(-c2cnn3c(NCC4CCOCC4)nc(Oc4ccccc4)nc23)ccc1C(=O)NC1CC1", "AUC(0-t)": "38100 ng·h/mL"}

====

pIC50: −log10 of the molar value.
Assay read-out pIC50; system under study: Dual specificity protein kinase TTK (Homo sapiens).
VALUE KIND: pIC50

{"ITEM SMILES": "Cc1cc(-c2cnn3c(NCC4CCOCC4)nc(NC4CCCCC4)nc23)ccc1C(=O)NC1CC1", "TARGET DESC": "Dual specificity protein kinase TTK (Homo sapiens)", "MEASURED NUMBER": 8.59}
{"ITEM SMILES": "Cc1cc(-c2cnn3c(NCC4CCOCC4)nc(Oc4cccc(F)c4F)nc23)ccc1C(=O)NC1CC1", "TARGET DESC": "Dual specificity protein kinase TTK (Homo sapiens)", "MEASURED NUMBER": 9.40}
{"ITEM SMILES": "CC(C)C(=O)Nc1ccc(-c2cnn3c(NCC4CCOCC4)nc(OC4CCCC4)nc23)cc1", "TARGET DESC": "Dual specificity protein kinase TTK (Homo sapiens)", "MEASURED NUMBER": 5.77}
{"ITEM SMILES": "O=C(NC1CC1)c1ccc(-c2cnn3c(NCCN4CCOCC4)nc(Oc4ccccc4)nc23)cc1", "TARGET DESC": "Dual specificity protein kinase TTK (Homo sapiens)", "MEASURED NUMBER": 7.62}
{"ITEM SMILES": "Cc1cc(-c2cnn3c(NCC4CCOCC4)nc(NC4CCCC4)nc23)ccc1NC(=O)C1CC1", "TARGET DESC": "Dual specificity protein kinase TTK (Homo sapiens)", "MEASURED NUMBER": 5.70}

Taken from ChEMBL document CHEMBL3817791.
